Listing of recorded recombinant UMI read abundance (log10) by entry.
- assayMethodText: recombinant UMI read abundance after kanamycin selection (control-corrected) (log10(CPM+1)); higher = more efficient recombination; extreme values may be limits of the assay; sequences stand for … in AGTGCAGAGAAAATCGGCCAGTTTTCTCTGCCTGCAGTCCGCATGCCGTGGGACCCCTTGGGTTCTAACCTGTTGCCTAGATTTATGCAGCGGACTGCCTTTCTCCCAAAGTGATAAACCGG…AGGTTGGTTTCACT; site = the 11-nt donor

itemSequence	recombinant UMI read abundance (log10)
ACACTTACATGGACCGGTTTTCCCGGTAATCCGTATTTGGG (site ACACTTACTCC)	0.464
CGTGGATCATGGACCGGTTTTCCCGGTAATCCGTATTTGTT (site CGTGGACCTAA)	0.0255
GGGCCAACATGGACCGGTTTTCCCGGTAATCCGTATTTGTA (site GGACCAACTTA)	0.317
CATTTGGCATGGACCGGTTTTCCCGGTAATCCGTATTTGCT (site CATTTGGCTAG)	0
CGTGCCCCATGGACCGGTTTTCCCGGTAATCCGTATTTGGC (site CGTGCCCCTGC)	0

====

Readings of recombinant barcode read abundance (log10) for the listed sequences
- assayMethodText: recombinant barcode read abundance after kanamycin selection (control-corrected) (log10(CPM+1)); higher = more efficient recombination; sequences stand for … in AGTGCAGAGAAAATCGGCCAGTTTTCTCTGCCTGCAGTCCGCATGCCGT…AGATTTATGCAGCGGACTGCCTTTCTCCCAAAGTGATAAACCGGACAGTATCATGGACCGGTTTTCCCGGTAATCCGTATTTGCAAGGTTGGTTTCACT; site = the 11-nt target
parameterMeasured: recombinant barcode read abundance (log10)

itemSequence	dataValue
CTGCTGTCTTGGGTTCTAACCTGTTGCCA (site CTGCTGTCTTG)	0.095
GCAGCTACTTGGGTTCTAACCTGTTGCTG (site GCAGCTACTCA)	0.694
GTACGTCCTTGGGTTCTAACCTGTTGCTT (site GTACGTCCTAT)	0.374
CAGGCGCCTTGGGTTCTAACCTGTTGCCT (site CAGGCGTCTAG)	0.527
TAGGACTCTTGGGTTCTAACCTGTTGCAT (site CCTCGTCCTGG)	0.0204
AGTTGCACTTGGGTTCTAACCTGTTGCCT (site AGTTACACTAG)	0.14
TGTTAGTCTTGGGTTCTAACCTGTTGCCG (site TGTTAGTCTCG)	0.0597
GTGAGTGCTTGGGTTCTAACCTGTTGCCA (site GTGAGTGCTTG)	0.723
CGTTCGACTTGGGTTCTAACCTGTTGCAT (site CGTACGACTAT)	0.131
AACTCAACTTGGGTTCTAACCTGTTGCCT (site AACTGAACTAG)	0.18
GCTCCTCCTTGGGTTCTAACCTGTTGCAT (site ATAGAGTCTCG)	0.0486
GAAAATCCTTGGGTTCTAACCTGTTGCCT (site GAAAGTCCTAG)	0.0177
CTCCGGGCTTGGGTTCTAACCTGTTGCAG (site TATACACCTAC)	0.0879
GACAGTACTTGGGTTCTAACCTGTTGCCT (site TACAGTACTAG)	0.79
CGCAAATCTTGGGTTCTAACCTGTTGCCT (site CGGAAATCTAG)	0.0907
GTCAGCCCTTGGGTTCTAACCTGTTGCGG (site GTTAGCCCTCC)	0.365
ACATGTACTTGGGTTCTAACCTGTTGCAG (site AGATGTACTCA)	0.0852
ACTGATCCTTGGGTTCTAACCTGTTGCAT (site ACTGATCCTAT)	2.35
CTCAAAGCTTGGGTTCTAACCTGTTGCGA (site CTCAAAGCTTC)	1.38
CACACGACTTGGGTTCTAACCTGTTGCCT (site CACACGTCTAG)	0.109
ACGAGCTCTTGGGTTCTAACCTGTTGCTG (site ACGAGCTCTCA)	1.84
